# testSystem: Human recombinant Monoamine Oxidase A (Homo sapiens, UniProt P21397)
# Construct: purchased Sigma Aldrich M7316
# Sequence (P21397 1-527): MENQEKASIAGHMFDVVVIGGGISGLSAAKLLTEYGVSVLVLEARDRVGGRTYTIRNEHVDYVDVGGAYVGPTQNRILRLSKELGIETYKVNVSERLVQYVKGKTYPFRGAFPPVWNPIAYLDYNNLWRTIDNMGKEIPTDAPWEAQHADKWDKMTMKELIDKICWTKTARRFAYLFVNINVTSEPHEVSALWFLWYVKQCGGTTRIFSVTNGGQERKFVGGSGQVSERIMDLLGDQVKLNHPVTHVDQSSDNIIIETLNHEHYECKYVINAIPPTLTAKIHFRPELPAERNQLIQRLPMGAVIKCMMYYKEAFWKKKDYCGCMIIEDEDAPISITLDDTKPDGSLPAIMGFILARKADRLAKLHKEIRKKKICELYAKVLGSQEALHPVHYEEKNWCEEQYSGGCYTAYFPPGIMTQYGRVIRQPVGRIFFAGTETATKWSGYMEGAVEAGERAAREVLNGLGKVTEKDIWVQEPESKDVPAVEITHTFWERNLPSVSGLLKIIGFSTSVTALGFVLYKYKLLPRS
# testDetails: MAOs inhibitory assay (fluorescence-based microplate), MAO-A
# Format: biochemical
# assayContext: SI = (IC50 of MAO-B)/(IC50 of MAO-A)
propertyName: SI (selectivity index)
Form: value (number only, do not type unit).

Reference set (2 entries):
* NC(=O)COc1ccccc1C(=O)O [Compound 13] | 0.82
* Cc1ccc(OCC(N)=O)cc1 [Compound 10] | 180

// query Lab request: please report SI (selectivity index) under test system Human recombinant Monoamine Oxidase A (Homo sapiens, UniProt P21397) for COC(=O)c1ccccc1OCC(N)=O [Compound 14]
// result 0.91

// query Lab request: please report SI (selectivity index) under test system Human recombinant Monoamine Oxidase A (Homo sapiens, UniProt P21397) for COc1ccccc1OCC(N)=O [Compound 11]
// result 8.07
